Test: Toxicity liver stage against HepG2, at 10uM
Type: cell-based
Design: test concentration 10 uM, cell line HepG2-A16-CD81EGFP
Conditions: human, HepG2-A16-CD81EGFP cells; read-out: INHIBITION
Record form. Attribute: cytotoxicity at 10 µM. Fill in for each entry.
The figure you give is taken to be in %; do not add the unit.

INPUT: Retrieve cytotoxicity at 10 µM measured for CC(C)CC(=O)N1CC(=O)c2sc(NCCc3ccccc3)nc2C1 and print it.
OUTPUT: -0.501

INPUT: Retrieve cytotoxicity at 10 µM measured for COc1ccc2c(c1)nc1n2[C@@H](CNCc2nccs2)COC1 and print it.
OUTPUT: -1.57

INPUT: Retrieve cytotoxicity at 10 µM measured for COCCN(Cc1ccc(OC)nc1)Cc1cccs1 and print it.
OUTPUT: -7.28

INPUT: Retrieve cytotoxicity at 10 µM measured for Cc1ccccc1OCCN1CCn2c(C)nnc2C1 and print it.
OUTPUT: -2.78

INPUT: Retrieve cytotoxicity at 10 µM measured for COc1cccc(OCC2CCCN(C(=O)c3ccc(N)nc3)C2)c1 (stereo not given) and print it.
OUTPUT: 3.37

INPUT: Retrieve cytotoxicity at 10 µM measured for CC(C)CNC(=O)c1cn(C)c(=O)c2ccccc12 and print it.
OUTPUT: 1.28

INPUT: Retrieve cytotoxicity at 10 µM measured for O=S(=O)(Cc1ccccc1Cl)CC(O)CO (stereo not given) and print it.
OUTPUT: 6.44

INPUT: Retrieve cytotoxicity at 10 µM measured for CC(c1cccnc1)N1CCN(CCc2ccccn2)CC1 (stereo not given) and print it.
OUTPUT: -6.18

INPUT: Retrieve cytotoxicity at 10 µM measured for CC(C)CN1CC2(CCN(C(=O)C(O)c3ccccc3Cl)CC2)CC1=O (stereo not given) and print it.
OUTPUT: 6.89

INPUT: Retrieve cytotoxicity at 10 µM measured for CC(=O)c1sc(C(NC(=O)c2ccccc2)C2CC2)nc1C (stereo not given) and print it.
OUTPUT: -15.5

INPUT: Retrieve cytotoxicity at 10 µM measured for O=C(c1cnccn1)N1CCc2ncnc(-c3cccnc3)c2CC1 and print it.
OUTPUT: -3.8

INPUT: Retrieve cytotoxicity at 10 µM measured for CCN1C(=O)[C@]2(CC[C@@H]3CN(S(=O)(=O)CC(C)C)C[C@@H]32)N=C1C and print it.
OUTPUT: -78.2

INPUT: Retrieve cytotoxicity at 10 µM measured for CCc1nc2c(N3CCC4(CC3)CC(=O)N(CC(C)C)C4)ncnc2o1 and print it.
OUTPUT: 16.2

INPUT: Retrieve cytotoxicity at 10 µM measured for CCCc1nc(C)c(C(=O)NCCN2CCOCC2)s1 and print it.
OUTPUT: -7.75

INPUT: Retrieve cytotoxicity at 10 µM measured for O=C(NCC1(O)CCC1)NC(c1cc(F)ccc1F)C1CC1 (stereo not given) and print it.
OUTPUT: -4.81

INPUT: Retrieve cytotoxicity at 10 µM measured for O=C(Cc1ccccc1)N1CCN(Cc2noc(C3CC3)n2)CC1 and print it.
OUTPUT: 1.15

INPUT: Retrieve cytotoxicity at 10 µM measured for Cc1nc(-c2ccsc2)ccc1C(=O)NC(C)CN1CCOCC1 (stereo not given) and print it.
OUTPUT: -13.8

INPUT: Retrieve cytotoxicity at 10 µM measured for COc1cccc(CN(C)Cc2nc3cc(C)ccc3[nH]2)c1O and print it.
OUTPUT: 2.74

INPUT: Retrieve cytotoxicity at 10 µM measured for CC(NC(=O)NCCCn1cncn1)c1ccc2c(c1)CC(=O)N2 (stereo not given) and print it.
OUTPUT: -8.01

INPUT: Retrieve cytotoxicity at 10 µM measured for Cc1ccccc1C1CN(c2cnn(C)c(=O)c2Cl)CCO1 (stereo not given) and print it.
OUTPUT: -19.4

INPUT: Retrieve cytotoxicity at 10 µM measured for O=c1n(Cc2cccc(C(F)(F)F)c2)nc2ncccn12 and print it.
OUTPUT: -8.64

INPUT: Retrieve cytotoxicity at 10 µM measured for Cc1nc(NCc2noc(C3CCCO3)n2)c2sccc2n1 (stereo not given) and print it.
OUTPUT: 50.2

INPUT: Retrieve cytotoxicity at 10 µM measured for CC(C)NC(=O)N1CCC(c2nccn2C(C)C)CC1 and print it.
OUTPUT: -6.77

INPUT: Retrieve cytotoxicity at 10 µM measured for Cc1nc(C2CCCN2C(=O)CCCOc2cccc(F)c2)no1 (stereo not given) and print it.
OUTPUT: 5.09

INPUT: Retrieve cytotoxicity at 10 µM measured for CCN1CCN(c2ccccc2NC(=O)NCc2ccon2)CC1 and print it.
OUTPUT: 10.4

Reference source for all entries: ChEMBL document CHEMBL4513216
